- target-under-test: T1, monkey CD22 on HEK293T-monkey CD22 cells (monkey)
- T1 construct: full-length entry expressed on stably transfected HEK293T cells
- T1 chain: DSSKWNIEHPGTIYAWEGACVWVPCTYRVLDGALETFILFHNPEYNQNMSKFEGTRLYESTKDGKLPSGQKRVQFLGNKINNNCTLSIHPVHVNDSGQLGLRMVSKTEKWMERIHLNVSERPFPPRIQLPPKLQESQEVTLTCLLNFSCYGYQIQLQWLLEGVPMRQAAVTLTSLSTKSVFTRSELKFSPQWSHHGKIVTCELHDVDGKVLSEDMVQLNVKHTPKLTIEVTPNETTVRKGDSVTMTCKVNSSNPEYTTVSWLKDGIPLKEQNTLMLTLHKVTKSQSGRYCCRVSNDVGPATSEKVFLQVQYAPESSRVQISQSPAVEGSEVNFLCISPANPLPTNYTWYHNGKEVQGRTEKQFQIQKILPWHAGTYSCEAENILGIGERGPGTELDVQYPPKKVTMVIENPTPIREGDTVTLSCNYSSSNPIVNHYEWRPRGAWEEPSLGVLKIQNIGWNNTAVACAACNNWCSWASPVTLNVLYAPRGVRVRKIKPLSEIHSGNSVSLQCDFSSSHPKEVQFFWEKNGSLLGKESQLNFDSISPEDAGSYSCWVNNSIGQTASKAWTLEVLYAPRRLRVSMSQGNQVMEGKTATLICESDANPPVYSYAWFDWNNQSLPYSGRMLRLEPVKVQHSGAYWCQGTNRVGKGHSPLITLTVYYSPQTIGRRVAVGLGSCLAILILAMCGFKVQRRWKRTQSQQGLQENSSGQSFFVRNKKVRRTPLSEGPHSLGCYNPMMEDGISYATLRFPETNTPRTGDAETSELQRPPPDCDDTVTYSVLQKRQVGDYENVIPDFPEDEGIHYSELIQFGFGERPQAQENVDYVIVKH
- assay-details: FACS, HEK293T-monkey CD22 cells
- Protocol: For suspension cell Raji, the medium supernatant was directly centrifuged and discarded, and the cell pellet was washed 2 times with PBS. […] Data analysis was performed by software (CellQuest) to obtain the mean fluorescence density (MFI)of the cells. […]
parameter-measured: pEC50
Quick note: pEC50 means taking -log10 of the concentration in moles per liter.

>  <binder>
F1.250.16 (antibody, human IgG1, kappa, V domains shown, human-murine chimeric IgG1 kappa; VL name legible) VH: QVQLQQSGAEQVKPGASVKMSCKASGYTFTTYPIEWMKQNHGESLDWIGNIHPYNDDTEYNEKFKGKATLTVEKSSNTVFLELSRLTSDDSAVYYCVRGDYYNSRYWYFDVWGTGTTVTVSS VL: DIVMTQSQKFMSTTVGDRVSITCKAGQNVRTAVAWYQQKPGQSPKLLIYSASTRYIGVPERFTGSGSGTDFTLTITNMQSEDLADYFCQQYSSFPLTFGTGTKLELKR

>  <pEC50>
9.51

$$$$
>  <binder>
F1.105.11 (antibody, human IgG1, kappa, V domains shown, human-murine chimeric IgG1 kappa; VL name legible) VH: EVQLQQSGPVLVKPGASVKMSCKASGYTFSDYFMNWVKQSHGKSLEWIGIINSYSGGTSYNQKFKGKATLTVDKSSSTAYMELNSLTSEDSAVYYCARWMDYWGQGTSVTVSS VL: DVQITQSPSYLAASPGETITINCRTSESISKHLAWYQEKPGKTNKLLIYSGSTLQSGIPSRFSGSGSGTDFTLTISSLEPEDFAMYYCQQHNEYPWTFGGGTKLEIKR

>  <pEC50>
8.89

$$$$
>  <binder>
F1.17.1 (antibody, human IgG1, kappa, V domains shown, human-murine chimeric IgG1 kappa) VH: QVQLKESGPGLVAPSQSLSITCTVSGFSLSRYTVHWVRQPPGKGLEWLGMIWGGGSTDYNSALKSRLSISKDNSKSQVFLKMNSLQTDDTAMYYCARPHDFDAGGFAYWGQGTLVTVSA VL: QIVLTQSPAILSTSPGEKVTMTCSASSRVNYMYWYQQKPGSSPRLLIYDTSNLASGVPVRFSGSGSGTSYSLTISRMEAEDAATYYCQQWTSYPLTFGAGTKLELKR

>  <pEC50>
9.42

$$$$
>  <binder>
F1.7.6 (antibody, human IgG1, kappa, V domains shown, human-murine chimeric IgG1 kappa; VL name legible) VH: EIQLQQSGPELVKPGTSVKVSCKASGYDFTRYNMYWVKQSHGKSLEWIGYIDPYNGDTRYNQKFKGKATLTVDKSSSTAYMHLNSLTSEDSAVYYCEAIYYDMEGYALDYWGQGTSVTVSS VL: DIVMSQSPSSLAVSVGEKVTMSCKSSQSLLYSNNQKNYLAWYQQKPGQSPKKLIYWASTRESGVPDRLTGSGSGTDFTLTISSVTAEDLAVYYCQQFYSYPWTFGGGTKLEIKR

>  <pEC50>
8.65

$$$$
>  <binder>
HA22-hIgG1 (antibody, V domains shown) VH: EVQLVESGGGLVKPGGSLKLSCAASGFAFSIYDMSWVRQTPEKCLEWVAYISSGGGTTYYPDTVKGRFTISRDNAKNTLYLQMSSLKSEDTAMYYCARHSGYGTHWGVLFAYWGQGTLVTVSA VL: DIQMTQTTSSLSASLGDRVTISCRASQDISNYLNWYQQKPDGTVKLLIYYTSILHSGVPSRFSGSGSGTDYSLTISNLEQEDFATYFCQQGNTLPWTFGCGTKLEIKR

>  <pEC50>
9.04

$$$$

Prompt: What does the record list as pEC50 for F1.192.1 (antibody, human IgG1, kappa, V domains shown, human-murine chimeric IgG1 kappa) VH: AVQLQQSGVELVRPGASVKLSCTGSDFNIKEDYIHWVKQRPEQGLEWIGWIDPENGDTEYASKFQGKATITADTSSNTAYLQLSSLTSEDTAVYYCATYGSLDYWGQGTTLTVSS VL: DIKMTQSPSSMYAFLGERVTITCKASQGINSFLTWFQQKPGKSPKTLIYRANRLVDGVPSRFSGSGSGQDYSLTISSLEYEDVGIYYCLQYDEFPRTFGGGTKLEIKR ?
Response: 9.21

Prompt: Given F1.200.11 (antibody, human IgG1, kappa, V domains shown, human-murine chimeric IgG1 kappa) VH: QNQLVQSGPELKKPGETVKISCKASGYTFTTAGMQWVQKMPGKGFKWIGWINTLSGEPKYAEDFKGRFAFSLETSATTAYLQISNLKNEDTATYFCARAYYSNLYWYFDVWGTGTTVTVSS VL: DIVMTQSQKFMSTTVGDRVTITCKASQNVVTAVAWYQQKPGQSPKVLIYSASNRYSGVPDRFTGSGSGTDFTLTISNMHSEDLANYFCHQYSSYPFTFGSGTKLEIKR , state its recorded pEC50.
Response: 8.36

Prompt: Looking for the measured pEC50 of F1.267.9 (antibody, human IgG1, kappa, V domains shown, human-murine chimeric IgG1 kappa; VL name legible) VH: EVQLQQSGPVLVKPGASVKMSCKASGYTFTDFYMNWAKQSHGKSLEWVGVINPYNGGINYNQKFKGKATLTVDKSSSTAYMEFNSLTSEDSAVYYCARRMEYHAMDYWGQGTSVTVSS VL: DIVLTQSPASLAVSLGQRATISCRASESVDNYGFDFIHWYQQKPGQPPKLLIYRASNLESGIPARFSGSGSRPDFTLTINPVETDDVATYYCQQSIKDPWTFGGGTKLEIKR , can you help?
Response: 8.94

Prompt: Name the reported pEC50 value associated with the binder F1.120.15 (antibody, human IgG1, kappa, V domains shown, human-murine chimeric IgG1 kappa) VH: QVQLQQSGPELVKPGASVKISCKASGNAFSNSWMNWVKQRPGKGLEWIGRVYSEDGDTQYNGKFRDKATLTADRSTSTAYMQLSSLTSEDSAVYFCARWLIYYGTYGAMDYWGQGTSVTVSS VL: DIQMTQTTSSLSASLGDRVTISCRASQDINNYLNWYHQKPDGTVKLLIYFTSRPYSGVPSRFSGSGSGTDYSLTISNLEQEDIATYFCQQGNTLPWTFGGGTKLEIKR
Response: 9.02

Prompt: Which pEC50 value belongs to F1.231.15 (antibody, IgG1, V domains shown, human-murine chimeric IgG1 kappa) VH: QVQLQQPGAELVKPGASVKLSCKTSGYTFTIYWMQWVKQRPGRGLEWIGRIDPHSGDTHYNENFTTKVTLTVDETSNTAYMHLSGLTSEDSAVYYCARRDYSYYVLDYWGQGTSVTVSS VL: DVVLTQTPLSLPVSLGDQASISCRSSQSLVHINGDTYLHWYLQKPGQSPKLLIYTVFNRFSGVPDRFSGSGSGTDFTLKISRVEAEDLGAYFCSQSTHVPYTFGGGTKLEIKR ?
Response: 7.91

Prompt: Please report the recorded pEC50 for F1.216.2 (antibody, human IgG1, kappa, V domains shown, human-murine chimeric IgG1 kappa) VH: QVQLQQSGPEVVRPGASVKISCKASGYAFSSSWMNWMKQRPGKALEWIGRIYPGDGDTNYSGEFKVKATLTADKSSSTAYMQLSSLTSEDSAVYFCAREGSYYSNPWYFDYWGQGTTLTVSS VL: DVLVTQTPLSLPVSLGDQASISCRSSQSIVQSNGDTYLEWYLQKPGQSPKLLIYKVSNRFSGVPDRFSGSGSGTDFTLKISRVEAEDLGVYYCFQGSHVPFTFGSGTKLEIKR .
Response: 9.59

Entry source: patent US20240084003A1
